- test.protocol: Inhibition of beta3 tubulin overexpressed in human HeLa cells after 48 hrs by SRB assay
pIC50: −log10 of the molar value.
readout: pIC50

A = COc1ccc(N(C)c2nc(C)nc3c2CCC3)cc1
B = COc1ccc(N(C)c2nc(C)nc3c2CC(C)C3)cc1 (configuration not stated)
**Query** // which entry has the larger pIC50 value, A or B ? Write down the label attached to your selection.
**Result** A
(A: 8.09, B: 7.62)

* * *

- test.protocol: Inhibition of p-gp overexpressed in human SKOV3/M6-6 isogenic cells after 48 hrs by sulforhodamine B assay
readout: IC50 (µM)

> print(dat)
                                 compound  numeric.value
1  COc1ccc(/C=C\c2cc(OC)c(OC)c(OC)c2)cc1O         0.0066

I = COc1ccc(N(C)c2nc(C)nc3c2CCC3)cc1
II = COc1ccc(N(C)c2nc(C)nc3c2CC(C)C3)cc1 (stereo not drawn)
**Query** // which entry has the larger IC50 value, I or II ? Write down the label attached to your selection.
**Result** II
